molecular target: neuraminidase of live influenza A (H3N2) viruses (Influenza A virus, UniProt D1FVK3, I119V); assay: biochemical
pIC50: −log10 of the molar value.
QUANTITY MEASURED: pIC50

# LINE NOTATION, QUANTITY MEASURED, MEASURED
rows = [
    ("CC(=O)N[C@H]1[C@H]([C@H](O)[C@H](O)CO)OC(C(=O)O)=C[C@@H]1N=C(N)N", "pIC50", 8.51),
]

----------
test system: H3N2 E119V (A/Texas/12/2007); assay type: cell-based, Influenza A virus
compounds and their reported EC50

# LINE NOTATION, OPERATOR, EC50 [nM]
rows = [
    ("CC(=O)N[C@H]1[C@H]([C@H](O)[C@H](O)CO)OC(C(=O)O)=C[C@@H]1N=C(N)N", "=", 74),
    ("CCOC(=O)C1=C[C@@H](OC(CC)CC)[C@H](NC(C)=O)[C@@H](N)C1", ">", 100),
]
